Data origin: patent US20090192176A1

TGT: Human mTOR (Homo sapiens, UniProt P42345)
Construct: FLAG
METHOD: mTOR kinase assay (DELFIA format, purified enzyme)
APPLIED CONDITIONS: His6-S6K substrate, read-out: TOR Kinase IC50
Overview of reported IC50 across a group of compounds:
PARAMETER: IC50

# SUBSTANCE SMILES, PARAMETER, RESULT
measured = [
    ("OCc1cccc(-c2nc(C3=CCOCC3)c3nn[nH]c3n2)c1", "IC50", "0.34 µM"),
    ("O=C(Nc1ccc(-c2nc(C3=CCOCC3)c3cnn(CC(F)(F)F)c3n2)cc1)Nc1cccnc1", "IC50", "0.00075 µM"),
    ("OCc1cccc(-c2nc(C3=CCOCC3)c3ncn(C4CCN(Cc5cccnc5)CC4)c3n2)c1", "IC50", "3.8 µM"),
    ("COc1ncccc1CN1CCC(n2cnc3c(C4=CCOCC4)nc(-c4cncc(O)c4)nc32)CC1", "IC50", "2.8 µM"),
    ("Oc1cncc(-c2nc(C3=CCOCC3)c3ncn(C4CCN(Cc5c[nH]c6ccc(F)cc56)CC4)c3n2)c1", "IC50", "12 µM"),
    ("Oc1cncc(-c2nc(C3=CCOCC3)c3ncn(C4CCN(Cc5ccccc5)CC4)c3n2)c1", "IC50", "3.6 µM"),
    ("Oc1cccc(-c2nc(C3=CCOCC3)c3nc[nH]c3n2)c1", "IC50", "1.4 µM"),
    ("OCc1cccc(-c2nc(C3=CCOCC3)c3ncn(C4CCN(Cc5ccccc5)CC4)c3n2)c1", "IC50", "3.5 µM"),
]

###

TGT: Human mTOR (Homo sapiens, UniProt P42345)
Construct: FLAG
METHOD: mTOR kinase assay (DELFIA format, purified enzyme)
APPLIED CONDITIONS: His6-S6K substrate, read-out: TOR Kinase IC50
PARAMETER: IC50 (µM)

# COMPOUND, PARAMETER, PREFIX OPERATOR, NUMERIC READOUT
records = [
    ("OCc1cccc(-c2nc(C3=CCOCC3)c3ncn(C4CCNCC4)c3n2)c1", "IC50", ">", 4),
    ("O=C(Nc1ccc(-c2nc(C3=CCOCC3)c3cnn(CC(F)(F)F)c3n2)cc1)OCCO [Compound 10a]", "IC50", "=", 3.55),
    ("O=C(Nc1ccc(-c2nc(C3=CCOCC3)c3ncn(C4CCNCC4)c3n2)cc1)NC1CCNCC1", "IC50", ">", 4),
    ("Oc1cncc(-c2nc(C3=CCOCC3)c3ncn(C4CCNCC4)c3n2)c1", "IC50", "=", 4.8),
    ("Oc1cncc(-c2nc(C3=CCOCC3)c3ncn(C4CCN(Cc5ccc(Br)nc5)CC4)c3n2)c1", "IC50", "=", 2),
    ("Oc1cccc(-c2nc(C3=CCOCC3)c3nnn(C4CCN(Cc5ccccc5)CC4)c3n2)c1", "IC50", "=", 0.23),
]

###

TGT: Human mTOR (Homo sapiens, UniProt P42345)
Construct: FLAG
METHOD: mTOR kinase assay (DELFIA format, purified enzyme)
APPLIED CONDITIONS: His6-S6K substrate, read-out: TOR Kinase IC50
pIC50: −log10 of the molar value.
Is pIC50 at least 7? Then True. If not, False.

# SUBSTANCE SMILES, CATEGORY LABEL
measured = [
    ("OCc1cccc(-c2nc(C3=CCOCC3)c3ncn(C4CCN(Cc5ccc(Br)nc5)CC4)c3n2)c1", "False"),
    ("Oc1cccc(-c2nc(C3=CCOCC3)c3nn[nH]c3n2)c1", "True"),
    ("Oc1cccc(-c2nc(C3=CCOCC3)c3ncn(CCN4CCCCC4)c3n2)c1", "False"),
    ("Oc1cccc(-c2nc(C3=CCOCC3)c3ncn(C4CCN(Cc5cnc[nH]5)CC4)c3n2)c1", "False"),
    ("OCc1cccc(-c2nc(C3=CCOCC3)c3ncn(C4CCN(Cc5ccccn5)CC4)c3n2)c1", "False"),
    ("OCc1cccc(-c2nc(C3=CCOCC3)c3ncn(CCN4CCCCC4)c3n2)c1", "False"),
]
